- measured.target: D(1A) dopamine receptor (Homo sapiens, UniProt P21728)
- Sequence (P21728 whole entry): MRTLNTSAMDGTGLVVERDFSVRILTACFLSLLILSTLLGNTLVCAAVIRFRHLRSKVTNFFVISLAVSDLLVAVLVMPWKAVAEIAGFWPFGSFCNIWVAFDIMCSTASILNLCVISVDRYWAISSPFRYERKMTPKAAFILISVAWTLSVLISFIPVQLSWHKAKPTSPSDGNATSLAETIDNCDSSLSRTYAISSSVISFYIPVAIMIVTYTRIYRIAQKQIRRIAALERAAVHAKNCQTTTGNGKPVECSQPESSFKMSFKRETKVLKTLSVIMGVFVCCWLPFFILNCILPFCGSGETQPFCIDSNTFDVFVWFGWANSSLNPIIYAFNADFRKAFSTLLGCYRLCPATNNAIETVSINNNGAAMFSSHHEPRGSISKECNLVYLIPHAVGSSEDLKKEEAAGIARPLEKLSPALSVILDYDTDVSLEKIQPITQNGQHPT
- test.details: Displacement of [3H]SCh23390 from dopamine D1 receptor expressed in mouse LTK cells by scintillation counting
test.readout: Ki

Fill in the recorded Ki for this compound, with D(1A) dopamine receptor (Homo sapiens, UniProt P21728) as test system: `CN1CCc2cc(Cl)c(O)cc2[C@H]2c3cccc(Br)c3CC[C@@H]21`
3 nM

For D(1A) dopamine receptor (Homo sapiens, UniProt P21728), provide Ki of `COc1ccc(-c2cccc3c2CC[C@H]2[C@H]3c3cc(O)c(Cl)cc3CCN2C)cc1` please.
0.7 nM

Test system D(1A) dopamine receptor (Homo sapiens, UniProt P21728); read-out Ki; what value for `CN1CCc2cc(Cl)c(O)cc2[C@H]2c3cccc(C=O)c3CC[C@@H]21` ?
2.6 nM

* * *

- Test system: Rattus norvegicus
- test.details: AUC (0 to 6 hrs) in Sprague-Dawley rat at 10 mg/kg, po
- Format: ADME, organism-based, Plasma
- Parameters: time < 6 hr, dose 10 mg/kg, route oral
- settings: in vivo
test.readout: AUC (µg·h/mL)
Value expressed in µg·h/mL; do not type the unit.

Here are 3 molecules together with their reported answers.
CN1CCc2cc(Cl)c(O)cc2[C@H]2c3ccccc3CC[C@@H]21 [ECOPIPAM] : 156
CN1CCc2cc(Cl)c(O)cc2[C@H]2c3cccc(-c4cccs4)c3CC[C@@H]21 : 353
COc1ccc(-c2cccc3c2CC[C@H]2[C@H]3c3cc(O)c(Cl)cc3CCN2C)cc1 : 76

Lab request: please report AUC under test system Rattus norvegicus for `CN1CCc2cc(Cl)c(O)cc2[C@H]2c3cccc(-c4ccncc4)c3CC[C@@H]21`
75

* * *

- measured.target: D(1A) dopamine receptor (Homo sapiens)
- test.details: Displacement of [3H]SCh23390 from dopamine D1 receptor expressed in mouse LTK cells by scintillation counting
pKi: −log10 of the molar value.
Label scheme for pKi: lower than 9 is Not fulfilled, 9 and above is Fulfilled.

CO/N=C/c1cccc2c1CC[C@H]1[C@H]2c2cc(O)c(Cl)cc2CCN1C : Not fulfilled
CN1CCc2cc(Cl)c(O)cc2[C@H]2c3cccc(C(=O)O)c3CC[C@@H]21 : Not fulfilled
CN1CCc2cc(Cl)c(O)cc2[C@H]2c3cccc(C#N)c3CC[C@@H]21 : Not fulfilled
CN1CCc2cc(Cl)c(O)cc2[C@H]2c3cccc(-c4cccc(F)c4)c3CC[C@@H]21 : Fulfilled

Please turn your attention to the following entry.
hey, is pKi for this one >= 9? `CN1CCc2cc(Cl)c(O)cc2[C@H]2c3cccc(/C=N/OCc4ccccc4)c3CC[C@@H]21`
Fulfilled

* * *

# pKi per entry for D(1B) dopamine receptor (Homo sapiens, UniProt P21918)
Expect pKi as a plain number equal to -log10 of the molar concentration.

Consider the following illustrative entries.
CN1CCc2cc(Cl)c(O)cc2[C@H]2c3cccc(/C=N/Oc4ccccc4)c3CC[C@@H]21 : 8.68
COC(=O)c1cccc2c1CC[C@H]1[C@H]2c2cc(O)c(Cl)cc2CCN1C : 8.43
CN1CCc2cc(Cl)c(O)cc2[C@H]2c3cccc(O)c3CC[C@@H]21 : 8.85
CN1CCc2cc(Cl)c(O)cc2[C@H]2c3cccc(-c4ccncc4)c3CC[C@@H]21 : 7.98
CN1CCc2cc(Cl)c(O)cc2[C@H]2c3ccccc3CC[C@@H]21 : 8.70

Turning now to a further record.
Please give the measured pKi for this molecule: `CN1CCc2cc(Cl)c(O)cc2[C@H]2c3cccc(/C=N/O)c3CC[C@@H]21`
8.48
